protocol_notes: Toxicity liver stage against HepG2, at 10uM
Type: cell-based
Set-up: test concentration 10 uM, cell line HepG2-A16-CD81EGFP
recorded_conditions: human, HepG2-A16-CD81EGFP cells; read-out: INHIBITION
Each entry below carries its reported cytotoxicity at 10 µM.
Just the number in %, nothing appended.

# count of solved cases: 2
NC1CCCCN(Cc2cc(C3CCCCC3)no2)C1 (centres undefined)
-14.1
COc1cc2nc(NCCNS(C)(=O)=O)cc(C)c2cc1OC
-1.08

INPUT: What value of cytotoxicity at 10 µM has been reported for the following compound? CC(C)c1cc(NC(=O)c2cccnc2)[nH]n1
OUTPUT: -4.24

INPUT: Queued: Cc1nc(C2CCCN(C(=O)c3cnc(C)s3)C2)no1 (centres undefined)
OUTPUT: 4.31

====

Each entry below carries its reported cytotoxicity at 10 µM.
protocol_notes: Toxicity liver stage against HepG2, at 10uM
Assay type: cell-based
Set-up: test concentration 10 uM, cell line HepG2-A16-CD81EGFP
recorded_conditions: human, HepG2-A16-CD81EGFP cells; read-out: INHIBITION
Just the number in %, nothing appended.

# count of solved cases: 3
COc1ccc(Oc2cncc(C3CCCN3C(C)=O)n2)cc1 (configuration not stated)
2.86
CCc1noc(C(C)N2CCC(N3CCCC3)CC2)n1 (configuration not stated)
-7.77
CNc1cc(N2CCCC2CNCc2cccnc2)ncn1 (configuration not stated)
-11.5

INPUT: What value of cytotoxicity at 10 µM has been reported for the following compound? O=C(C1CCOC1)N1Cc2ccccc2OC2(CCOCC2)C1 (configuration not stated)
OUTPUT: 1.32

INPUT: Queued: Cn1ccc(C(=O)NCc2ccc(CN3CCCC3)cc2)cc1=O
OUTPUT: -13.5

INPUT: Queued: Cc1nc(CN2CCOC(Cn3cccn3)C2)no1 (configuration not stated)
OUTPUT: -11.6

INPUT: Queued: CCNC(=O)N1CCC2(CC1)CCn1c(C3CC3)cnc12
OUTPUT: 1.89

INPUT: Queued: COc1ccc(CN2CCN(Cc3nccn3C)C(C)C2)cc1F (configuration not stated)
OUTPUT: 2.42

INPUT: Queued: CN([C@@H]1CC[C@@H](N2CCOCC2)[C@@H]1O)S(=O)(=O)c1ccccc1
OUTPUT: 2.77

====

protocol_notes: Toxicity liver stage against HepG2, at 10uM
Type: cell-based
Set-up: test concentration 10 uM, cell line HepG2-A16-CD81EGFP
recorded_conditions: human, HepG2-A16-CD81EGFP cells; read-out: INHIBITION
Each entry below carries its reported cytotoxicity at 10 µM.
Just the number in %, nothing appended.

Cc1nc(C2CCCNC2)cc(N(Cc2c(C)nn(C)c2C)C2CC2)n1 (stereo not given)
-7.23
CC(C)N1C(=O)CN(CCCO)CC1(C)C
2.04
Cn1ccc(C(=O)NCc2ccc(N3CCCCC3)nc2)cc1=O
-10.8
O=C(Nc1ccc(-n2cccn2)c(F)c1)C1CCN(C(=O)C2CC2)CC1
1.48
NCc1ccnc(Oc2ccc(F)cc2)c1
12.4
Fc1cnc(N2CCCC3(CN(Cc4cccs4)CCO3)C2)nc1 (stereo not given)
7.37
CCOc1ccc(N2CCCN=C2NC(=O)c2ccc(OC)cc2)cc1
6.03
COCCNC(=O)C[C@@H]1COC[C@H]2CN(Cc3cccnc3)C[C@@H]12
2.13

INPUT: What value of cytotoxicity at 10 µM has been reported for the following compound? c1cc(CNCC2CNc3ccnn3C2)cc(N2CCOCC2)n1 (stereo not given)
OUTPUT: -5.13

INPUT: Queued: N#Cc1cc(N2CCC(S(N)(=O)=O)CC2)c2ccccc2n1
OUTPUT: -5.03

INPUT: Queued: CNC(=O)CCc1cc(C2CCN(c3cnccn3)CC2)nc(C)n1
OUTPUT: -4.65

INPUT: Queued: COc1ccccc1N1CC(NC(=O)Cn2cc(C(C)C)nn2)CC1=O (stereo not given)
OUTPUT: 11.5

====

Each entry below carries its reported cytotoxicity at 10 µM.
protocol_notes: Toxicity liver stage against HepG2, at 10uM
Type: cell-based
Set-up: test concentration 10 uM, cell line HepG2-A16-CD81EGFP
recorded_conditions: human, HepG2-A16-CD81EGFP cells; read-out: INHIBITION
Just the number in %, nothing appended.

# count of solved cases: 2
c1ccc2oc(CCCN3CCCC(Cn4cncn4)C3)nc2c1 (centres undefined)
-27.8
Cc1c(CS(C)(=O)=O)cccc1NCC1CCCCC1
-8.98

INPUT: What value of cytotoxicity at 10 µM has been reported for the following compound? c1cnc(NC2COC3(CCN(Cc4cc[nH]n4)CC3)C2)nc1 (centres undefined)
OUTPUT: -1.17

INPUT: Queued: CN(C)Cc1cn2c(n1)CN(C1CCOC1)CC2 (centres undefined)
OUTPUT: 6.43

INPUT: Queued: Cn1nnc2cc(C(=O)NS(=O)(=O)c3cccc(C#N)c3)ccc21
OUTPUT: -6.29

INPUT: Queued: COc1c(CNC2CCN(C(=O)C(C)C)CC2)c(C(C)C)nn1C
OUTPUT: 1.25

====

Each entry below carries its reported cytotoxicity at 10 µM.
protocol_notes: Toxicity liver stage against HepG2, at 10uM
Assay type: cell-based
Set-up: test concentration 10 uM, cell line HepG2-A16-CD81EGFP
recorded_conditions: human, HepG2-A16-CD81EGFP cells; read-out: INHIBITION
Just the number in %, nothing appended.

# count of solved cases: 8
CC(O)(CNC(=O)c1c(F)cccc1Cl)c1ccco1 (configuration not stated)
2.22
Cc1cc(CN2CCN(S(=O)(=O)c3c(C)c(Cl)cc(C)c3Cl)CC2)on1
-8.87
CNC(=O)[C@H]1C[C@@H]2CN(C(=O)c3ccco3)C[C@@H]2N1S(C)(=O)=O
-10.2
Cc1ccc2[nH]c(CO[C@H]3CN(c4ccc(C#N)cn4)C[C@H]3F)nc2c1
-1.6
COc1cccc(F)c1C(C)NC(=O)NCc1cnc(C)s1 (configuration not stated)
-4.94
COc1ccc2c(c1)CCCN2C(=O)NCCc1cnn(C)c1
-6.94
CCn1cc(CNc2ccc(F)c(F)c2)cn1
-0.0638
COCCN1CCC(c2ncc(C(=O)N3CCOCC3)c(C)n2)CC1
1.36

With those in mind, consider the next compound.
INPUT: What value of cytotoxicity at 10 µM has been reported for the following compound? CCCn1ccnc1SCCNS(=O)(=O)c1ccccc1
OUTPUT: -12.8

====

protocol_notes: Toxicity liver stage against HepG2, at 10uM
Format: cell-based
Parameters: test concentration 10 uM, cell line HepG2-A16-CD81EGFP
recorded_conditions: human, HepG2-A16-CD81EGFP cells; read-out: INHIBITION
property: cytotoxicity at 10 µM (%)
Just the number in %, nothing appended.

# count of solved cases: 3
Cc1c(-c2nnc(SCC(=O)O)n2C(C)c2ccccc2)cnn1C (stereo unspecified)
-5.43
CC(C)c1nc2n(n1)CC(NCC(=O)NCCC1=CCCCC1)CC2 (stereo unspecified)
-4.76
COCCNC(=O)c1c(-n2cnnn2)sc2c1CCCC2
3.51

INPUT: What value of cytotoxicity at 10 µM has been reported for the following molecule? CC(C)CCn1c(=O)[nH]c2cn(-c3ccc(F)cc3)c(=O)n21
OUTPUT: 2.97

INPUT: Queued: Nc1ncncc1-c1noc([C@@H]2CCCN2CCCc2ccccc2)n1
OUTPUT: 1.58

INPUT: Queued: Cc1ccc(OCC(O)CN2CCC(Cn3cccn3)CC2)cc1 (stereo unspecified)
OUTPUT: -16

====

Each entry below carries its reported cytotoxicity at 10 µM.
protocol_notes: Toxicity liver stage against HepG2, at 10uM
Format: cell-based
Parameters: test concentration 10 uM, cell line HepG2-A16-CD81EGFP
recorded_conditions: human, HepG2-A16-CD81EGFP cells; read-out: INHIBITION

# count of solved cases: 2
CC(=O)N1CCC2(CC1)CN(C(=O)c1cccnc1)c1ccc(F)cc12
-108%
COc1cc(O)ccc1CN1CCN(C2CCc3ccccc3C2)CC1 (stereo not drawn)
-1.33%

With those in mind, consider the next compound.
INPUT: What value of cytotoxicity at 10 µM has been reported for the following compound? Cc1nc(CN(C)C2CCN(CCC(=O)N3CCOCC3)C2)no1 (stereo not drawn)
OUTPUT: -0.945%

====

protocol_notes: Toxicity liver stage against HepG2, at 10uM
Format: cell-based
Parameters: test concentration 10 uM, cell line HepG2-A16-CD81EGFP
recorded_conditions: human, HepG2-A16-CD81EGFP cells; read-out: INHIBITION
property: cytotoxicity at 10 µM (%)
Just the number in %, nothing appended.

# count of solved cases: 10
COc1ccccc1OCC(=O)NCC(O)(c1ccccc1)C1CC1 (stereo not drawn)
-16.1
CCn1ccnc1CN1CCC(Oc2cccc(F)c2)(C(=O)O)CC1
3.67
O=C(NC1CC1)N1CCC2(CC1)CC(N1CCOCC1)c1ccccc12 (stereo not drawn)
-109
O=C(NCCC(=O)N1CCCCCCC1)c1ccoc1
-22.2
c1cc(-c2c[nH]c([C@@H]3COCCN3C3CCOCC3)n2)ccn1
-0.113
Cn1cc(C(C)(O)CNC(=O)c2ccc(Br)s2)cn1 (stereo not drawn)
-52.7
O=c1oc(-c2ccc(F)cc2)nn1CN1CCN(CC2CC2)CC1
1.44
Cc1nc(N)nc(C)c1CC(=O)N1CCCCC1c1cccc(F)c1 (stereo not drawn)
-2.06
CC(CS(C)(=O)=O)NC(=O)N1CC2(CCCC2)c2ccccc21 (stereo not drawn)
-4.34
CS(=O)(=O)N1CCC(Oc2cnccn2)CC1
0.097

INPUT: What value of cytotoxicity at 10 µM has been reported for the following compound? Cc1cc(C(=O)N2CCCC2)ccc1NCc1nc(CC(C)C)no1
OUTPUT: -4.09

INPUT: Queued: Cc1noc(C)c1C(=O)Nc1ccc2ncn(CC(C)C)c(=O)c2c1
OUTPUT: 8.75

INPUT: Queued: CC(C)c1ncc2c(n1)CN(Cc1nnc(Cc3ccccc3)o1)CC2
OUTPUT: -12.6
